Cited source: the Human Domainome abundance scans (Beltran et al. 2025)

B1: Tudor domain-containing protein 3, residues 554 to 611; numbered along this chain, Q9H7E2 (parent)
chain: KMWKPGDECFALYWEDNKFYRAEVEALHSSGMTAVVKFIDYGNYEEVLLSNIKPIQTE

# Variants of: B1
# assay name: abundance fitness (aPCA) (normalised: wild type 0, dead -1); higher = more abundant; growth selection in yeast, the domain comes from the species named
# cond: Homo sapiens
measured quantity: abundance fitness

Record excerpt, results attached:
INSERT INTO assay_data (variant_descriptor, test_result) VALUES
  ('K4E', -0.2),
  ('E8K', 0.017),
  ('E25W', -0.101),
  ('D7R', -0.762),
  ('E8G', -0.264),
  ('G6E', -0.845),
  ('L12V', -0.368),
  ('A34M', -0.358),
  ('D7Q', -0.321),
  ('K53M', -0.192);

Consider the additional variant presented here.
*Q* abundance fitness lookup needed for R21A , thanks.
*A* -0.289
